molecular target: LY6A (Ly6a, C57BL/6J mouse) (mouse (C57BL/6J)); assay: AAV library bound to Ly6a-transfected HEK293T cells, NGS
substances and their reported fold enrichment (log2)
Only the number, expressed in log2, is required.

Illustrative cases are given below, each with its answer.
AAV9 K449R 7-mer variant C1 (KSAGSIY) | 1.41
AAV9 K449R 7-mer variant C28 (KSVGSVY) | -1.24
AAV9 K449R 7-mer variant TRNGYST | 0.186
AAV9 K449R 7-mer variant C5 (ELYKLPT) | -2.26

Now, please, on to the next substance.
Item: AAV9 K449R 7-mer variant C3 (WGTPPRG) | fold enrichment (log2): 1.01

---

target: LY6C1 (Ly6c1, C57BL/6J mouse, splice variant 1) (mouse (C57BL/6J)); experiment: AAV library bound to Ly6c1-transfected HEK293T cells, NGS
ASSAY_METRIC: fold enrichment (log2)
Only the number, expressed in log2, is required.

Illustrative cases are given below, each with its answer.
AAV9 K449R 7-mer variant GSYGYSS | 2.48
AAV9 K449R 7-mer variant SNDRPFI | -1.02
AAV9 K449R 7-mer variant DSQRPFI | -3.55

Item: AAV9 K449R 7-mer variant MVRNYST | fold enrichment (log2): 3.25

Item: AAV9 K449R 7-mer variant VKVGFSS | fold enrichment (log2): 4.22

Item: AAV9 K449R 7-mer variant KTQFKDV | fold enrichment (log2): -3.55

Item: AAV9 K449R 7-mer variant NERRPFL | fold enrichment (log2): 0.77

Item: AAV9 K449R 7-mer variant TVMAPFK | fold enrichment (log2): -0.19

Item: AAV9 K449R 7-mer variant RSDFKDI | fold enrichment (log2): -2.44

---

substances and their reported fold enrichment (log2)
target: LY6A (Ly6a, C57BL/6J mouse) (mouse (C57BL/6J)) (UniProt P05533); assay: AAV library bound to Ly6a-transfected HEK293T cells, NGS
Please answer using a numeric value trailed by its unit.

Illustrative cases are given below, each with its answer.
AAV9 K449R 7-mer variant LLRGASS | -0.33 log2
AAV9 K449R 7-mer variant KQYQGST | 1.54 log2

Item: AAV9 K449R 7-mer variant LSKGLSS | fold enrichment (log2): -3.55 log2

Item: AAV9 K449R 7-mer variant GSERPFL | fold enrichment (log2): 3.78 log2

Item: AAV9 K449R 7-mer variant DRIHGYS | fold enrichment (log2): -0.11 log2

Item: AAV9 K449R 7-mer variant TLAYPFK | fold enrichment (log2): 3.93 log2

Item: AAV9 K449R 7-mer variant YVGNPFK | fold enrichment (log2): 4.53 log2

Item: AAV9 K449R 7-mer variant MMAKPFL | fold enrichment (log2): 4.53 log2

Item: AAV9 K449R 7-mer variant ALAKPFI | fold enrichment (log2): 1.91 log2

Item: AAV9 K449R 7-mer variant SLSKPFS | fold enrichment (log2): 2.19 log2

Item: AAV9 K449R 7-mer variant SYIGASS | fold enrichment (log2): -1.01 log2

Item: AAV9 K449R 7-mer variant DSQRPFI | fold enrichment (log2): 2.63 log2

Item: AAV9 K449R 7-mer variant STRGYSA | fold enrichment (log2): 1.08 log2

Item: AAV9 K449R 7-mer variant AADRPFL | fold enrichment (log2): 2.73 log2

---

substances and their reported fold enrichment (log2)
biological target: LY6C1 (Ly6c1, C57BL/6J mouse, splice variant 1) (mouse (C57BL/6J)); assay: AAV library bound to Ly6c1-transfected HEK293T cells, NGS
Please answer using a numeric value trailed by its unit.

AAV9 K449R 7-mer variant GGRGLSS | 4.9 log2
AAV9 K449R 7-mer variant LWAKGST | 3.9 log2
AAV9 K449R 7-mer variant LRTAYSS | 5.12 log2
AAV9 K449R 7-mer variant DVKYGSS | 4.92 log2

Lab note: substance AAV9 K449R 7-mer variant MMAKPFL tested on LY6C1 (Ly6c1, C57BL/6J mouse, splice variant 1) (mouse (C57BL/6J)); recorded fold enrichment (log2) was -0.49 log2

Lab note: substance AAV9 K449R 7-mer variant SKTGYST tested on LY6C1 (Ly6c1, C57BL/6J mouse, splice variant 1) (mouse (C57BL/6J)); recorded fold enrichment (log2) was 4.43 log2

Lab note: substance AAV9 K449R 7-mer variant QSAGYST tested on LY6C1 (Ly6c1, C57BL/6J mouse, splice variant 1) (mouse (C57BL/6J)); recorded fold enrichment (log2) was 2.55 log2

Lab note: substance AAV9 K449R 7-mer variant STTFKDI tested on LY6C1 (Ly6c1, C57BL/6J mouse, splice variant 1) (mouse (C57BL/6J)); recorded fold enrichment (log2) was -3.32 log2

Lab note: substance AAV9 K449R 7-mer variant DKAWGST tested on LY6C1 (Ly6c1, C57BL/6J mouse, splice variant 1) (mouse (C57BL/6J)); recorded fold enrichment (log2) was 3.56 log2

Lab note: substance AAV9 K449R 7-mer variant MNIGYSA tested on LY6C1 (Ly6c1, C57BL/6J mouse, splice variant 1) (mouse (C57BL/6J)); recorded fold enrichment (log2) was 2.4 log2

Lab note: substance AAV9 K449R 7-mer variant TKYMHSS tested on LY6C1 (Ly6c1, C57BL/6J mouse, splice variant 1) (mouse (C57BL/6J)); recorded fold enrichment (log2) was 4.24 log2

Lab note: substance AAV9 K449R 7-mer variant NIIRPFA tested on LY6C1 (Ly6c1, C57BL/6J mouse, splice variant 1) (mouse (C57BL/6J)); recorded fold enrichment (log2) was 0.4 log2

Lab note: substance AAV9 K449R 7-mer variant HNVFKNP tested on LY6C1 (Ly6c1, C57BL/6J mouse, splice variant 1) (mouse (C57BL/6J)); recorded fold enrichment (log2) was 0.33 log2

Lab note: substance AAV9 K449R 7-mer variant NRGGYAS tested on LY6C1 (Ly6c1, C57BL/6J mouse, splice variant 1) (mouse (C57BL/6J)); recorded fold enrichment (log2) was 4.53 log2

Lab note: substance AAV9 K449R 7-mer variant SKGSYST tested on LY6C1 (Ly6c1, C57BL/6J mouse, splice variant 1) (mouse (C57BL/6J)); recorded fold enrichment (log2) was 2.74 log2

Lab note: substance AAV9 K449R 7-mer variant KQYQGST tested on LY6C1 (Ly6c1, C57BL/6J mouse, splice variant 1) (mouse (C57BL/6J)); recorded fold enrichment (log2) was 4.88 log2

---

molecular target: LY6C1 (Ly6c1, C57BL/6J mouse, splice variant 1) (mouse (C57BL/6J)) (UniProt P0CW02); assay: AAV library bound to Ly6c1-transfected HEK293T cells, NGS
# label = Criterion met if fold enrichment (log2) < 4 log2 else Criterion not met

In the record for AAV9 K449R 7-mer variant GESRPFI , is fold enrichment (log2) less than 4 log2?
Criterion met

In the record for AAV9 K449R 7-mer variant AISAPFK , is fold enrichment (log2) less than 4 log2?
Criterion met

---

biological target: LY6A (Ly6a, C57BL/6J mouse) (mouse (C57BL/6J)) (UniProt P05533); experiment: AAV library bound to Ly6a-transfected HEK293T cells, NGS
ASSAY_METRIC: fold enrichment (log2)
Please answer using a numeric value trailed by its unit.

AAV9 K449R 7-mer variant TYKSGSS | 1.95 log2
AAV9 K449R 7-mer variant TYGGYSQ | -0.34 log2
AAV9 K449R 7-mer variant IRQGYSS | -1.28 log2

Lab note: substance AAV9 K449R 7-mer variant VRPGWST tested on LY6A (Ly6a, C57BL/6J mouse) (mouse (C57BL/6J)) (UniProt P05533); recorded fold enrichment (log2) was 1.02 log2

---

molecular target: LY6A (Ly6a, C57BL/6J mouse) (mouse (C57BL/6J)) (UniProt P05533); assay: AAV library bound to Ly6a-transfected HEK293T cells, NGS
Class assignment keyed on fold enrichment (log2), ranges LOW: < -0.6 log2; MEDIUM: ≥ -0.6 log2 and < 1 log2; HIGH: ≥ 1 log2

AAV9 K449R 7-mer variant SSEKPFQ | HIGH

State the class of the substance shown: AAV9 K449R 7-mer variant TGTSPFK
HIGH

State the class of the substance shown: AAV9 K449R 7-mer variant NSPGWSS
LOW

State the class of the substance shown: AAV9 K449R 7-mer variant TKSTPFI
HIGH

State the class of the substance shown: AAV9 K449R 7-mer variant ASSKPFL
HIGH

State the class of the substance shown: AAV9 K449R 7-mer variant IRVGYST
LOW

State the class of the substance shown: AAV9 K449R 7-mer variant VKVGFSS
LOW

State the class of the substance shown: AAV9 K449R 7-mer variant TRTSGAS
MEDIUM

State the class of the substance shown: AAV9 K449R 7-mer variant SSTGYSS
LOW

State the class of the substance shown: AAV9 K449R 7-mer variant HKTHYSS
MEDIUM

State the class of the substance shown: AAV9 K449R 7-mer variant IVRGLSS
LOW

State the class of the substance shown: AAV9 K449R 7-mer variant AKAGYAS
MEDIUM

State the class of the substance shown: AAV9 K449R 7-mer variant VKGGYSS
MEDIUM

State the class of the substance shown: AAV9 K449R 7-mer variant DKYNFSS
MEDIUM

State the class of the substance shown: AAV9 K449R 7-mer variant ESRGFSS
MEDIUM

State the class of the substance shown: AAV9 K449R 7-mer variant IDRGYSV
LOW

State the class of the substance shown: AAV9 K449R 7-mer variant VPRYGSS
LOW

State the class of the substance shown: AAV9 K449R 7-mer variant GKHFSST
HIGH

State the class of the substance shown: AAV9 K449R 7-mer variant VYPGYST
LOW

State the class of the substance shown: AAV9 K449R 7-mer variant MVRNYST
LOW

Reference for the values: patent US20220143214A1
